Hey, just so you know, these numbers are from the supplement of paper PMC7125110.

B1: glmS ribozyme (parent)
chain: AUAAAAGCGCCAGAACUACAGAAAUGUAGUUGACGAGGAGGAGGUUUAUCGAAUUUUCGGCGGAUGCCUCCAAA

# Variants of: B1
# Assay explanation: self-cleavage kobs at 2500 uM GlcN6P; higher = faster cleavage; RNA array
# Condition summary: with glucosamine-6-phosphate
Fewer inactive variants are shown than the library holds.
Entries and their self-cleavage kobs at 2500 uM GlcN6P
Assay endpoint: self-cleavage kobs at 2500 uM GlcN6P

>>> value_reported("G9C A33C A48G U54G")
"< 1e-05 s⁻¹"
>>> value_reported("U30G C68U")
"0.000642 s⁻¹"
>>> value_reported("G9U A14G C61A A64G C70G")
"6.76e-05 s⁻¹"
>>> value_reported("G35U G51A G63A C67A")
"< 1e-05 s⁻¹"
>>> value_reported("G32U A33C U45G U65A")
"< 1e-05 s⁻¹"
>>> value_reported("C10A U47A C70A")
"0.000334 s⁻¹"
>>> value_reported("G13C G41A G62C")
"< 1e-05 s⁻¹"
>>> value_reported("C58G A64U")
"< 1e-05 s⁻¹"
>>> value_reported("U57G C70G")
"8.84e-05 s⁻¹"
>>> value_reported("G32U A52U C58U C61U")
"< 1e-05 s⁻¹"
>>> value_reported("G38U G43A U47C C67U")
"< 1e-05 s⁻¹"
>>> value_reported("A12C C58A")
"0.000104 s⁻¹"
>>> value_reported("C61G C70G C71G")
"8.65e-05 s⁻¹"
>>> value_reported("A6C A12G A15G")
"< 1e-05 s⁻¹"
>>> value_reported("C34U G37A A39C")
"< 1e-05 s⁻¹"
>>> value_reported("A33U G41U A52U")
"< 1e-05 s⁻¹"
>>> value_reported("A12U G29C")
"0.00717 s⁻¹"
>>> value_reported("A36G A48U")
"< 1e-05 s⁻¹"
>>> value_reported("C16U A52G C71G")
"0.000175 s⁻¹"
>>> value_reported("U30A U69A")
"9.65e-05 s⁻¹"
>>> value_reported("G44A U47G")
"0.00011 s⁻¹"
>>> value_reported("A6U A14U U31C A42G A52C A64C")
"< 1e-05 s⁻¹"
>>> value_reported("A48C C71A")
"3.84e-05 s⁻¹"
>>> value_reported("A14G U47G")
"0.0139 s⁻¹"
>>> value_reported("G41U U47G A53U")
"0.000276 s⁻¹"
>>> value_reported("A14G A53C C71U")
"0.00736 s⁻¹"
>>> value_reported("U46A U47C C70A")
"0.000206 s⁻¹"
>>> value_reported("U31C G63U")
"< 1e-05 s⁻¹"
>>> value_reported("C16U A33U U49A")
"< 1e-05 s⁻¹"
>>> value_reported("A6G A14G G40A")
"3.86e-05 s⁻¹"
>>> value_reported("C16A C67A")
"0.00021 s⁻¹"
>>> value_reported("G43U C67G")
"0.00117 s⁻¹"
>>> value_reported("A15C U47G")
"0.000675 s⁻¹"
>>> value_reported("A12C G35A C70U")
"< 1e-05 s⁻¹"
>>> value_reported("C11A A12U G32U C50U U56A C58A")
"< 1e-05 s⁻¹"
>>> value_reported("U31G A39G")
"0.0142 s⁻¹"
>>> value_reported("G13U U49C C50A G59A C70G")
"3.99e-05 s⁻¹"
>>> value_reported("C8A G13U U56G A64G")
"< 1e-05 s⁻¹"
>>> value_reported("G29A G41U")
"7.35e-05 s⁻¹"
>>> value_reported("C50G C70G")
"9.3e-05 s⁻¹"
>>> value_reported("A36U G63A")
"< 1e-05 s⁻¹"
>>> value_reported("C8G G63C")
"< 1e-05 s⁻¹"
>>> value_reported("U55G C70G")
"0.000184 s⁻¹"
>>> value_reported("A15U C34A A64G")
"< 1e-05 s⁻¹"
>>> value_reported("G7A A36U")
"< 1e-05 s⁻¹"
>>> value_reported("C10U C50G")
"0.00051 s⁻¹"
